Data credit: PubChem BioAssay AID2553

MEASUREMENT_TARGET: Short transient receptor potential channel 6 (Mus musculus) (UniProt Q61143)
Sequence (Q61143 whole entry, looked up): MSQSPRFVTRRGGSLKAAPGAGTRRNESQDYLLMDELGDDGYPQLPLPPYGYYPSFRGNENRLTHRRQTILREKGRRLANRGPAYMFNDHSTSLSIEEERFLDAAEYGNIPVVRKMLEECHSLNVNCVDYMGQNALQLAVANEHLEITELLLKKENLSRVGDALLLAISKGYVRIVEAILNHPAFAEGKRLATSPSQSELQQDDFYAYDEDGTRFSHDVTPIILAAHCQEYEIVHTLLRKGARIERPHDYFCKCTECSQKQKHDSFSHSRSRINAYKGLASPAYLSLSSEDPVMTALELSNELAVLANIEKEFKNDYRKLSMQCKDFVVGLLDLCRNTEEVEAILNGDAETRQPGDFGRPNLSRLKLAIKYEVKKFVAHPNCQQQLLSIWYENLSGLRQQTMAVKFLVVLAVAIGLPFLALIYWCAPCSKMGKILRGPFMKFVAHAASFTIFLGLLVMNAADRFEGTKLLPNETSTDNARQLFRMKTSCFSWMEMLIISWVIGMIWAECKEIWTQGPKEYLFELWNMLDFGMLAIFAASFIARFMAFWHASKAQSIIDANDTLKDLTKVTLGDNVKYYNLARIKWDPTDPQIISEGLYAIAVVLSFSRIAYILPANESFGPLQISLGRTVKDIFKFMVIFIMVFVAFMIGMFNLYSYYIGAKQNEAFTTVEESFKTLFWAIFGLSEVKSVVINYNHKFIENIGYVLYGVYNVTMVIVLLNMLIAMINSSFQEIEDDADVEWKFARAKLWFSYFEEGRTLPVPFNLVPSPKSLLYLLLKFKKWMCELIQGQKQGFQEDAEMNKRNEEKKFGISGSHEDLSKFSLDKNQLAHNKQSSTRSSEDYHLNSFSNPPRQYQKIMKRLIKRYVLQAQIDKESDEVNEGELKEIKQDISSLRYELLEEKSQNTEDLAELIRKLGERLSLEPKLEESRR
EXPERIMENTAL_DETAILS: mouse TRPC6 channel inhibitors, primary screen, cell-based, HEK293, membrane potential dye (AID 2553)
CONDITION: ACh-evoked depolarization, at 10 µM
In all, about 310,000 compounds went through this assay and about 3,300 (1.1%) were called active.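 The calls were made as follows: active = B-score under library mean minus 3 SD, initial fluorescence not abnormally high, positive integrated signal ratio; inactive = the rest.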 Only a selection was taken, and actives are over-represented in it overall.
Pick from active, inactive when you respond.

Completed entries (count: 5):
# MOLECULE, CATEGORY
data = [
    ("COc1cc(CNC2CCCCC2)c(Br)cc1OC1CCCC1", "inactive"),
    ("C=CCOc1ccc(/C=C/C(=O)OCC(=O)NC2CCCCCC2)cc1", "inactive"),
    ("Cc1c(-c2ccccc2)n[nH]c1C(=O)N=Nc1c(O)[nH]c2ccccc12", "inactive"),
    ("CCOCCCNCc1cc(Br)ccc1OCC", "inactive"),
    ("COCCCNCCOCCOc1ccc(Cl)cc1Br", "inactive"),
]

Q: Identify the outcome logged in this assay for the molecule shown: COC(=O)c1c(-c2cccs2)csc1NC(=O)CSc1ncnc2sc(C)c(C)c12
Result: inactive

Q: Identify the outcome logged in this assay for the molecule shown: CCCCCCCCn1c2c(c(=N)c3c1CCC3)CCCC2
Result: active

Q: Identify the outcome logged in this assay for the molecule shown: COCC(C)NCc1cc(Br)ccc1OC (configuration not stated)
Result: inactive

Q: Identify the outcome logged in this assay for the molecule shown: CC1(C)COC(c2cccn2Cc2ccccc2Cl)=N1
Result: inactive

Q: Identify the outcome logged in this assay for the molecule shown: CC(=O)c1ccc(N2CCN(C(=O)c3ccc4nc[nH]c4c3)CC2)cc1
Result: inactive

Q: Identify the outcome logged in this assay for the molecule shown: CCC(C)NCCOCCOc1ccc(Br)cc1C (configuration not stated)
Result: active

Q: Identify the outcome logged in this assay for the molecule shown: CC(C)(C)NCc1cc(Br)ccc1OC1CCCC1
Result: active

----------
MEASUREMENT_TARGET: Short transient receptor potential channel 6 (Mus musculus)
EXPERIMENTAL_DETAILS: mouse TRPC6 channel inhibitors, primary screen, cell-based, HEK293, membrane potential dye (AID 2553)
CONDITION: ACh-evoked depolarization, at 10 µM
Out of some 310,000 compounds screened, about 3,300 (1.1%) were called active.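 The calls were made as follows: active = B-score under library mean minus 3 SD, initial fluorescence not abnormally high, positive integrated signal ratio; inactive = the rest.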 The sample as a whole holds a higher share of actives than the screen did.
Pick from active, inactive when you respond.

# COMPOUND, CATEGORY
rows = [
    ("O=C(c1cccc(-n2cccc2)c1)N1CCN(S(=O)(=O)c2ccc(F)cc2)CC1", "active"),
    ("O=[N+]([O-])c1ccccc1/C=C/CN1CCC(O)CC1", "inactive"),
    ("COCC1CCN(C(=O)C2CCC(=O)N(Cc3cccc(C(F)(F)F)c3)C2)CC1 (stereo not given)", "inactive"),
    ("COc1cccc(NC(=O)C/C(C)=N/NC(=O)C2CCCCC2)c1", "inactive"),
    ("O=C(NCCc1ccccc1Cl)C1CCC(=O)N(CCCc2ccccc2)C1 (stereo not given)", "inactive"),
]

Q: Identify the outcome logged in this assay for the compound shown: c1ccc2c(c1)OCCOCCOCCO2
Result: inactive

Q: Identify the outcome logged in this assay for the compound shown: c1ccc(C2c3[nH]c4ccccc4c3CCN2Cc2cccn2-c2cccnc2)nc1 (stereo not given)
Result: active

Q: Identify the outcome logged in this assay for the compound shown: CCOCCCNc1nc(-c2ccccc2)nc2ccccc12
Result: inactive

Q: Identify the outcome logged in this assay for the compound shown: Cn1c(S(=O)(=O)O)nc2ccccc21
Result: inactive
